# Target Entity: T1, human CD24 on cells (human, UniProt P25063 27-59)
# T1 chain (looked up): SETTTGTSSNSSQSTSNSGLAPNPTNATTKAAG
# Protocol Details: cell-based or functional assay
Readout: EC50 of Phagocytosis assay, IgG1, Kappa; HEK293-CD24

Binder: 45-H1E4, IgG1, Kappa (antibody, V domains shown) VH: QIQLVQSGPELKKPGETVKISCKASGYTFTTYGMSWMKQAPGKGLKWMGWINTYSGVPAYADDFKGRFAFSLDTSASTAYLQINNLKNEDTATYFCARSGYPWSPHSYSTDYWGQGISVTVSS VL: DVLLTQTPLSLPVSLGDQASISCKSSQSIVHSNGNTYLEWYLQKPGQSPKRLIYKVSNRFSGVPDRFSGSGSGTDFTLKISRVEAEDLGVYYCFQGSHVPWTFGGGTKLEIK
Reported Value: 0.29 µg/mL
--
Binder: 79-E3H3, IgG1, Kappa (antibody, V domains shown) VH: EVQLQQSGPELVKPGASVKISCKASGYEFTGYHMNWVKQSPEKSLEWIGEINPITSDKTFNQKFKAKATLTVDRSSSTAYMHLKSLTSEDSAVYYCARRDYDTSLDYWGQGTTLTVSS VL: DVQITQSPSYLAASPGETITIYCRASKSISKYLAWYQEKPEKTNRLLIYAGSTLQSGIPSRFRGSGSGKDFTLTVSGLEPEDFAMYYCQQHNEYPLTFGAGTKLELK
Reported Value: 0.19 µg/mL
--
Binder: 74-H4C6 (4451), IgG1, Kappa (antibody, V domains shown) VH: EVQLQQSGPELVKPGASVKISCKASGYDFTGYHMNWVKQSPEKSLEWIGEINPITSDKTFNQKFKSKATLTVDRSSSTAYMYLKSLTSEDSAVYYCARRDYGTSLDYWGQGTTLTVSS VL: DVQITQSPSYLAASPGETITIYCRASKSISKYLAWYQEKPEKTNRLLIYAGSTLHSGIPSRFRGSGSGKDFTLTVSGLEPEDFAMYYCQQHNEYPITFGAGTKLELK
Reported Value: 0.05 µg/mL
--
Binder: 59-G9D7, IgG1, Kappa (antibody, V domains shown) VH: QVQLQQPGADLVKPGASVKLSCKASGYTVTTYWMHWVRQRPGRGLEWIGRIDPNSGETKYSEKFKNKATLTVDRPSSTAYMQLSSLTFEDSAVYFCAIYYYLNNFLFDYWGQGTTLTVSS VL: ENVLTQSPAIMSASPGEKVTMTCRASSSVSSSYLHWYQKKSGASPKLWIYSTSNLASGVPARFSGSGSGTSYSLTISSVEAEDAATYYCQQYSGYPLTFGAGTKLELK
Reported Value: 4.76 µg/mL
--
Binder: 90-D11B6, IgG1, Kappa (antibody, V domains shown) VH: EVQLQQSGPELVKPGASVRISCKASGYSFTGYYMNWVKQSPEKNLEWIGEINPITGGSTYNQKFVAKATLTVDRSSSTAYMQLKSLTSEDSAVYYCTRRDYDTSLDYWGQGTTLTVSS VL: DVQITQSPSYLAASPGETITINCRASKSISKYLAWYQEKPGKTIKLLIYAGSTLQSGIPSRFSGSGYGTDFTLTISSLEPEDFAMYYCQQHNEYPLTFGAGTKLELK
Reported Value: 1.31 µg/mL
--
Binder: 85-D5A10 (4434), IgG1, Kappa (antibody, V domains shown) VH: EVQLQQSGPELVKPGASVKISCKASGYEFTGYHMNWVKQSPEKSLEWIGEINPITSDKTFNQKFKAKATLTVDRSSSTAYMHLKSLTSDDSAVYYCARRDYGTSLDYWGQGTTLTVSS VL: DVQITQSPSYLAASPGETITIYCRASKSISKYLAWYQEKPEKTIRLLIYAGSTLQSGIPSRFRGSGSGKDFTLTVSGLEPEDFAMYYCQQHNEYPITFGAGTKLELI
Reported Value: 6.76 µg/mL

// data source = patent US20260265403A1
